// Kd lookup, one value per entry
Target: T1, human a-Mesothelin (Acro Biosystems; MSN_H5223) (human, UniProt Q13421 296-580, limits assumed)
T1 construct: Bought protein immobilised on the SPR chip; Printed as 'a-Mesothelin' but used as the antigen for the anti-MSLN scFvs; also called Human MSLN; MSLN
T1 sequence (Q13421 other isoform, or with tags, fused parts or gaps limits assumed): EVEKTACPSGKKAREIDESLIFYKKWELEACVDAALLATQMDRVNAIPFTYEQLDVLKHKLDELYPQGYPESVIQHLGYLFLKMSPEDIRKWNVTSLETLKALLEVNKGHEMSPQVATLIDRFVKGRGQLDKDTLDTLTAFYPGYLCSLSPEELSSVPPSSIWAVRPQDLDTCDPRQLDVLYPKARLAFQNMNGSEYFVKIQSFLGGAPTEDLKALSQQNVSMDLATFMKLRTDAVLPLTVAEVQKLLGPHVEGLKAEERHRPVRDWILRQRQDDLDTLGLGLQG
Test: SPR, mesothelin immobilised, scFv analyte, 1:1 fit
Give the value in nM but do not write nM after it.

Sample answers from the record:
INSERT INTO measurements (binder, val) VALUES
  ('PRO2931 (scFv 54-21-H03-sc01_(L144K, S148L)) (scFv, PRO1922 variant; VH substitutions, AHo numbering; also called PRO1922 L144K-S148L) scFv: DIQMTQSPSSLSASVGDRVTITCQASESIYSSLAWYQQKPGKAPKLLIYLASTLASGVPSRFSGSGSGTDFTLTISSLQPEDFATYYCQSTDYTTSTHRNSFGTGTKVTVLGGGGGSGGGGSGGGGSGGGGSEVQLVESGGGLVQPGGSLRLSCAASGFSFSTTYYMCWVRQAPGKGLEWIGCTNTASSVRTYYATWAKGRFTISRDNSKNTVYLQMNSLRAEDTAVYYCARDMGFADYALNLWGQGTKVTVLS', 1.4),
  ('PRO2993 (scFv 54-21-H03-sc01_(P15A)) (scFv, PRO1922 variant; VH substitution, AHo numbering; also called PRO1922 P15A) scFv: DIQMTQSPSSLSASVGDRVTITCQASESIYSSLAWYQQKPGKAPKLLIYLASTLASGVPSRFSGSGSGTDFTLTISSLQPEDFATYYCQSTDYTTSTHRNSFGTGTKVTVLGGGGGSGGGGSGGGGSGGGGSEVQLVESGGGLVQAGGSLRLSCAASGFSFSTTYYMCWVRQAPGKGLEWIGCTNTASSVRTYYATWAKGRFTISRDNSKNTVYLQMNSLRAEDTAVYYCARDMGFADYALNLWGQGTLVTVSS', 0.82);

Need Kd, item PRO3345 (scFv 54-21-H03-sc01_(T101N, T146Q)) (scFv, PRO1922 variant; VH substitutions, AHo numbering; also called PRO1922 T101N-T146Q) scFv: DIQMTQSPSSLSASVGDRVTITCQASESIYSSLAWYQQKPGKAPKLLIYLASTLASGVPSRFSGSGSGTDFTLTISSLQPEDFATYYCQSTDYTTSTHRNSFGTGTKVTVLGGGGGSGGGGSGGGGSGGGGSEVQLVESGGGLVQPGGSLRLSCAASGFSFSTTYYMCWVRQAPGKGLEWIGCTNTASSVRTYYATWAKGRFTISRDNSKNTVYLQMNSLRAEDNAVYYCARDMGFADYALNLWGQGTLVQVSS
1.5
